Cited source for all entries: the supplement of paper PMC9233669

- Tested on: biotinyl-Leu-oxazolone
- protocol text: self-aminoacylation, catalytic enhancement (BLO) (fold over background); higher = more active; k-Seq, kA / k0A0; sequences stand for … in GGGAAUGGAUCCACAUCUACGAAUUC…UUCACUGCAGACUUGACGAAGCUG
Fewer inactive variants are shown than the library holds.
Tag: rule met if measured self-aminoacylation is not below 3, rule not met if it is.

| ordered residues | study system | class name |
| --- | --- | --- |
| CUACAUCAAACAAUCGGUCCG [Fam1A.1 aminoacylation ribozyme variant] | biotinyl-Leu-oxazolone | rule not met |
| AUUCACCUAGUCCAUCGGGUG [Fam2.2 aminoacylation ribozyme variant] | biotinyl-Leu-oxazolone | rule met |
| AUUACCCUUGUCAUCCAGUGA [Fam2.1 aminoacylation ribozyme variant] | biotinyl-Leu-oxazolone | rule met |
| AUUACUCUGGUCAGCGAGUGA [Fam2.1 aminoacylation ribozyme variant] | biotinyl-Leu-oxazolone | rule met |
| CCACACUUCAAACAAUCAGUC [Fam1B.1 aminoacylation ribozyme variant] | biotinyl-Leu-oxazolone | rule not met |
| CCACACUUCAACCAAGCGGUC [Fam1B.1 aminoacylation ribozyme variant] | biotinyl-Leu-oxazolone | rule not met |
| CUAGUUCAAAAAAUCGGUCUG [Fam1A.1 aminoacylation ribozyme variant] | biotinyl-Leu-oxazolone | rule not met |

----------
- Tested on: biotinyl-Val-oxazolone
- protocol text: self-aminoacylation, catalytic enhancement (BVO) (fold over background); higher = more active; k-Seq, kA / k0A0; sequences stand for … in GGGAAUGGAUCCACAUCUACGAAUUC…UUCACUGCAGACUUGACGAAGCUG
Fewer inactive variants are shown than the library holds.
Classify as follows. Reported self-aminoacylation greater than or equal to 1: Criterion met. Reported self-aminoacylation below: Criterion not met.

| ordered residues | class name |
| --- | --- |
| AUGACCCAGGUCAUCGAGUGA [Fam2.1 aminoacylation ribozyme variant] | Criterion met |
| AUUCACCUAGGUCCUCUGGUG [Fam2.2 aminoacylation ribozyme variant] | Criterion met |
| CCACAGUUCAAGCAAUGGGUC [Fam1B.1 aminoacylation ribozyme variant] | Criterion met |
| CUACUUGUAACAAUCGGUCUG [Fam1A.1 aminoacylation ribozyme variant] | Criterion not met |
| AUUCACCUAAGUCAUCGGGCG [Fam2.2 aminoacylation ribozyme variant] | Criterion met |
| ACGUUUGCUAAUAGUUGCAAG [Fam3.1 aminoacylation ribozyme variant] | Criterion met |
| CUACUUUAAGCAAUCGGUCUG [Fam1A.1 aminoacylation ribozyme variant] | Criterion not met |
| CUACUUCAAACAACCUGUCUG [Fam1A.1 aminoacylation ribozyme variant] | Criterion not met |
| AUUCACCUAGGUAAUAGGGUG [Fam2.2 aminoacylation ribozyme variant] | Criterion met |
| ACUCACCUAGGUCAACGGGUG [Fam2.2 aminoacylation ribozyme variant] | Criterion met |
| CCACACCUCAAGCUAUCGGUC [Fam1B.1 aminoacylation ribozyme variant] | Criterion met |
| AUUCACCUAGGUCAUCUGCUG [Fam2.2 aminoacylation ribozyme variant] | Criterion not met |
| CCGCACUUCAAGCAAUCAGUC [Fam1B.1 aminoacylation ribozyme variant] | Criterion not met |
| AAGUUCGCUAAUAGCCGCAAG [Fam3.1 aminoacylation ribozyme variant] | Criterion met |
| AUUCACCUCGGUCAUCCGGUG [Fam2.2 aminoacylation ribozyme variant] | Criterion met |
| ACACACUUCAAGCAAUUGGUC [Fam1B.1 aminoacylation ribozyme variant] | Criterion met |
